- Tested on: 598228-144-R-J1-PDC complex spheroids, viability;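 further: spheroids exposed to compounds for seven days before readout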
- TEST PROTOCOL: Anticancer human tumor 598228-144-R-J1-PDC patient-derived serous endometrial adenocarcinoma cell line growth inhibition [CLK]; active means viability on the fitted dose curve at most 10% of control; inactive means the rest
- MEASUREMENT SETUP: second compound 1 µM; first compound 1 µM
The reply should name one outcome from YES (active), NO (inactive)

Q: Call for entry CC1COCCN1c1cc(C2(S(C)(=N)=O)CC2)nc(-c2ccnc3[nH]ccc23)n1 (stereo not given) + CN1CCN(c2cc(C(=O)Nc3cc4cc(-c5cnn(C)c5)ccc4cn3)ccn2)CC1 :
Ans: YES

Q: Repeat with COc1cccc2c1C(=O)c1c(O)c3c(c(O)c1C2=O)CC(O)(C(=O)CO)CC3OC1CC(N)C(O)C(C)O1 (stereo not given) + CN1CCN(c2cc(C(=O)Nc3cc4cc(-c5cnn(C)c5)ccc4cn3)ccn2)CC1
Ans: YES

Q: Repeat with C#Cc1c(F)ccc2cc(O)cc(-c3ncc4c(N5CC6CCC(C5)N6)nc(OCC56CCCN5CC(F)C6)nc4c3F)c12 (stereo not given) + CN1CCN(c2cc(C(=O)Nc3cc4cc(-c5cnn(C)c5)ccc4cn3)ccn2)CC1
Ans: YES

Others:
Q: Call for entry CC1COCCN1c1cc(C2(S(C)(=N)=O)CC2)nc(-c2ccnc3[nH]ccc23)n1 (stereo not given) + CNC(=O)c1ccc(Nc2nc(OC3CCCC3)c3c(-c4ccc5nc(C)oc5c4)c[nH]c3n2)c(OC)c1 :
Ans: NO

Q: Repeat with COc1cccc2c1C(=O)c1c(O)c3c(c(O)c1C2=O)CC(O)(C(=O)CO)CC3OC1CC(N)C(O)C(C)O1 (stereo not given) + CNC(=O)c1ccc(Nc2nc(OC3CCCC3)c3c(-c4ccc5nc(C)oc5c4)c[nH]c3n2)c(OC)c1
Ans: YES
